Biological target: hERG (KCNH2) (Homo sapiens)
Sequence (Q12809 whole entry): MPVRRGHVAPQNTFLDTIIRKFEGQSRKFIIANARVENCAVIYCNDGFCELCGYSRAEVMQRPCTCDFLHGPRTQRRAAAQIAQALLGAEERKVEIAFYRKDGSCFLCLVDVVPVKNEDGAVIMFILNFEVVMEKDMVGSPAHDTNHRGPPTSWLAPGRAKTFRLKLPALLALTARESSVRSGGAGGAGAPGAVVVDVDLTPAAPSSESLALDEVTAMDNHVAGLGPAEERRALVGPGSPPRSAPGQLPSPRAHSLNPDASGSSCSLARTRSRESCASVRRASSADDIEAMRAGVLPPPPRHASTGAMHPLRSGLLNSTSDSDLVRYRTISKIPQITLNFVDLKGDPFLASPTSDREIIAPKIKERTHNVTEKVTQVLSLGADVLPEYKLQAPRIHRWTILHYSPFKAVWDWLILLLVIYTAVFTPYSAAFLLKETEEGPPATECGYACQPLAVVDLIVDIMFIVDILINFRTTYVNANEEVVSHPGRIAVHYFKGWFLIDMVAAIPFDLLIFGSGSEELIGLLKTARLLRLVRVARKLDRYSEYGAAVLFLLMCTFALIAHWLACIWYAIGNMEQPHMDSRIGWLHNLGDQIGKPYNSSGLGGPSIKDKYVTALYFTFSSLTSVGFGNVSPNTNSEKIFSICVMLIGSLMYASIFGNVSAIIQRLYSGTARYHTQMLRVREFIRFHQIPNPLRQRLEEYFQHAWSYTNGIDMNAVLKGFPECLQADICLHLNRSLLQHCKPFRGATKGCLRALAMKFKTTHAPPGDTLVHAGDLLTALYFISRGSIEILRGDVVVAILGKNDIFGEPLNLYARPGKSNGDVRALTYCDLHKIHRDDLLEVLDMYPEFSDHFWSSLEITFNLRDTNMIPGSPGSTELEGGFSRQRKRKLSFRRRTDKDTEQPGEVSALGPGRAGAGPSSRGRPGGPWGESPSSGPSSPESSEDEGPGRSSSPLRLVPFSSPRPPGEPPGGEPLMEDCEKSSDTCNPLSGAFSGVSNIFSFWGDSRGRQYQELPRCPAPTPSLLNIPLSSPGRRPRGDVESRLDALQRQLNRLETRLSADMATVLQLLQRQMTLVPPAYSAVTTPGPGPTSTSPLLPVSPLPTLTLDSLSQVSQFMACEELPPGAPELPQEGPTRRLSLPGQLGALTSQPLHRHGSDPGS
Test: Inhibition of human ERG expressed in cell membranes at 5 uM after 4 hrs by fluorescence polarization assay
Details: cell membranes that express human ERG
PROPERTY_MEASURED: inhibition at 4 h, 5 µM (%)

>  <GIVEN_SMILES>
O=C(O)CCc1ccc(OCc2nnc(C(=O)Nc3ccccc3F)s2)cc1

>  <READING>
-7

$$$$
>  <GIVEN_SMILES>
O=C(O)CCc1nnc(C(=O)Nc2cccc(-c3ccc(F)cc3)c2)s1

>  <READING>
-1

$$$$
>  <GIVEN_SMILES>
O=C(O)CCc1ccc(OCc2nnc(C(=O)Nc3cccc(Cl)c3)s2)cc1

>  <READING>
-3

$$$$
>  <GIVEN_SMILES>
Cc1cccc(-c2cccc(NC(=O)c3nnc(CCC(=O)O)s3)c2)c1

>  <READING>
2

$$$$

====

Biological target: CYP3A4 (Homo sapiens, UniProt P08684)
Sequence (P08684 whole entry): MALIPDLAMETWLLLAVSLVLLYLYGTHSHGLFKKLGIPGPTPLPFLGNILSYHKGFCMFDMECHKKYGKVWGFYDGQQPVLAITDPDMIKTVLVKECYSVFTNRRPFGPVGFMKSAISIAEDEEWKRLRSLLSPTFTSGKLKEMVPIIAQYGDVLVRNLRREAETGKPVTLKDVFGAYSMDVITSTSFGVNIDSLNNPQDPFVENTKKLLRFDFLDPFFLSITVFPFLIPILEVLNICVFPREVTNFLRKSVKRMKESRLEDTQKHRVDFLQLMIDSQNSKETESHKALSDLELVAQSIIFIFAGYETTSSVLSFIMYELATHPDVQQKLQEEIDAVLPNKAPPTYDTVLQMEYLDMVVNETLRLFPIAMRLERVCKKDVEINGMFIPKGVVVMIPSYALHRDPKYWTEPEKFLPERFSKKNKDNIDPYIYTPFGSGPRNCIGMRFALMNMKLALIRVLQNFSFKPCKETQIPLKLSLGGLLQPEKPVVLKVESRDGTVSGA
Assay: Inhibition of CYP3A4 (unknown origin) at 20 uM by P450-glo assay
Format: ADME

>  <GIVEN_SMILES>
O=C(O)CCc1nnc(C(=O)Nc2cccc(-c3ccc(F)cc3)c2)s1

>  <SYSTEM>
CYP3A4 (Homo sapiens, UniProt P08684)

>  <inhibition at 20 µM / %>
-5.1

$$$$
>  <GIVEN_SMILES>
O=C(O)CCc1ccc(OCc2nnc(C(=O)Nc3cccc(Cl)c3)s2)cc1

>  <SYSTEM>
CYP3A4 (Homo sapiens, UniProt P08684)

>  <inhibition at 20 µM / %>
55.2

$$$$
>  <GIVEN_SMILES>
O=C(O)CCc1ccc(OCc2nnc(C(=O)Nc3ccccc3F)s2)cc1

>  <SYSTEM>
CYP3A4 (Homo sapiens, UniProt P08684)

>  <inhibition at 20 µM / %>
-28.7

$$$$
>  <GIVEN_SMILES>
Cc1cccc(-c2cccc(NC(=O)c3nnc(CCC(=O)O)s3)c2)c1

>  <SYSTEM>
CYP3A4 (Homo sapiens, UniProt P08684)

>  <inhibition at 20 µM / %>
12.3

$$$$

====

Measured microsomal CLint at 2 µM by item
Assay: Intrinsic clearance in BALB/c mouse liver microsomes at 2 uM after 40 mins by HPLC analysis
Type: ADME
Conditions: read-out: CLH
PROPERTY_MEASURED: microsomal CLint at 2 µM (µL/min/mg)

>  <GIVEN_SMILES>
O=C(O)CCc1nnc(C(=O)Nc2cccc(-c3ccc(F)cc3)c2)s1

>  <READING>
8

$$$$
>  <GIVEN_SMILES>
Cc1cccc(-c2cccc(NC(=O)c3nnc(CCC(=O)O)s3)c2)c1

>  <READING>
21.6

$$$$
>  <GIVEN_SMILES>
O=C(O)CCc1ccc(OCc2nnc(C(=O)Nc3ccccc3F)s2)cc1

>  <READING>
241

$$$$
>  <GIVEN_SMILES>
O=C(O)CCc1ccc(OCc2nnc(C(=O)Nc3cccc(Cl)c3)s2)cc1

>  <READING>
126

$$$$

====

Listed next: entries and their corresponding inhibition at 20 µM.
Target: CYP2D6 (Homo sapiens, UniProt P10635)
Sequence (P10635 whole entry): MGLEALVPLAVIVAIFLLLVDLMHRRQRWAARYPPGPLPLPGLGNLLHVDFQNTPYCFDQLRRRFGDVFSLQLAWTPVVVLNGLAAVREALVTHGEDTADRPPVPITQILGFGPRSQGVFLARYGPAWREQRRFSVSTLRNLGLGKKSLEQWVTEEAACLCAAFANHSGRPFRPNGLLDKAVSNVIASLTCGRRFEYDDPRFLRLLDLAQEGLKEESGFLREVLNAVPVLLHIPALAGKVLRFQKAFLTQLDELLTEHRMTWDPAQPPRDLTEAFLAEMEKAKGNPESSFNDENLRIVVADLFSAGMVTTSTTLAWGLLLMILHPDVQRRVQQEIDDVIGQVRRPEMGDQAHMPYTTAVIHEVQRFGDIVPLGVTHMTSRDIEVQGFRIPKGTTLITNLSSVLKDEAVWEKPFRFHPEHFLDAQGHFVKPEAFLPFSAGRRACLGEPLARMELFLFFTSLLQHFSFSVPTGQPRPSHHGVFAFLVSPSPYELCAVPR
Assay: Inhibition of CYP2D6 (unknown origin) at 20 uM by P450-glo assay
Assay type: ADME
PROPERTY_MEASURED: inhibition at 20 µM (%)

>  <GIVEN_SMILES>
O=C(O)CCc1nnc(C(=O)Nc2cccc(-c3ccc(F)cc3)c2)s1

>  <SYSTEM>
CYP2D6 (Homo sapiens, UniProt P10635)

>  <PROPERTY_MEASURED>
inhibition at 20 µM

>  <UOM>
%

>  <READING>
11.8

$$$$
>  <GIVEN_SMILES>
Cc1cccc(-c2cccc(NC(=O)c3nnc(CCC(=O)O)s3)c2)c1

>  <SYSTEM>
CYP2D6 (Homo sapiens, UniProt P10635)

>  <PROPERTY_MEASURED>
inhibition at 20 µM

>  <UOM>
%

>  <READING>
1.8

$$$$
>  <GIVEN_SMILES>
O=C(O)CCc1ccc(OCc2nnc(C(=O)Nc3cccc(Cl)c3)s2)cc1

>  <SYSTEM>
CYP2D6 (Homo sapiens, UniProt P10635)

>  <PROPERTY_MEASURED>
inhibition at 20 µM

>  <UOM>
%

>  <READING>
22.7

$$$$
>  <GIVEN_SMILES>
O=C(O)CCc1ccc(OCc2nnc(C(=O)Nc3ccccc3F)s2)cc1

>  <SYSTEM>
CYP2D6 (Homo sapiens, UniProt P10635)

>  <PROPERTY_MEASURED>
inhibition at 20 µM

>  <UOM>
%

>  <READING>
6.6

$$$$
